Values were extracted from ChEMBL document CHEMBL5727340.

assay: PRMT5 assay: Compounds were solubilized in DMSO and serially diluted, using 3-fold dilutions, into 100% DMSO at a concentration 50-fold greater than the desired assay concentration. Following dilution, 1 ul was added to an empty 96-well microtiter plate. PRMT5/MEP50 protein complex was combined with H4(1-21) peptide ([…]) in PRMT5 assay buffer (50 mM Tris pH 8.5, 50 mM NaCl, 5 mM MgCl2, 1 mM EDTA, 1 mM TCEP) and 44 ul was added to the microtiter plate containing compound. S-Adenosyl-L-methionine (SAM) was prepared by combining 3H labelled SAM with unlabelled SAM in PRMT5 assay buffer such that the final SAM concentration was 10 uM and the specific activity was 0.2 uCi/ul. The reaction was initiated by adding 5 ul of SAM stock to the microtiter plate. The final reaction conditions were 10 nM PRMT5/MEP50 complex, 200 nM peptide and 1 uM SAM. Following a 25 minute incubation at room temperature, the reaction was stopped with the addition of 100 uL of 20% TCA. The 3H-peptide product was captured using a 96-well filter plate (MSIPN4B, Millipore) and washed 5 times with PBS buffer. Scintillation fluid (100 ul) was added to the dried filter plate and counted in a liquid scintillation counter. IC50 values were determined by fitting the data to the standard 4-parameter dose response equation using Pfizer proprietary software.
pIC50: −log10 of the molar value.

# compound, pIC50
rows = [
    ("Cc1ncnc2c1ccn2[C@@H]1O[C@H]([C@@H](O)c2cccc(F)c2)[C@@H](O)[C@H]1O", 5.58),
    ("Cc1ncnc2c1ccn2[C@@H]1O[C@@H](C(C)(C)O)[C@H]2OC(C)(C)O[C@H]21", 5.49),
    ("Cc1ncnc2c1ccn2[C@@H]1O[C@H]([C@H](O)c2ccc3ccn(C)c3c2)[C@@H](O)[C@H]1O", 8.00),
    ("Cc1ncnc2c1ccn2[C@@H]1O[C@@H](C(C)O)[C@H]2OC(C)(C)O[C@H]21 (some centres undefined)", 5.76),
]
